# experimental-system: CYP11B (Rattus norvegicus, UniProt P15393+P30099)
# Sequence (P30099 whole entry): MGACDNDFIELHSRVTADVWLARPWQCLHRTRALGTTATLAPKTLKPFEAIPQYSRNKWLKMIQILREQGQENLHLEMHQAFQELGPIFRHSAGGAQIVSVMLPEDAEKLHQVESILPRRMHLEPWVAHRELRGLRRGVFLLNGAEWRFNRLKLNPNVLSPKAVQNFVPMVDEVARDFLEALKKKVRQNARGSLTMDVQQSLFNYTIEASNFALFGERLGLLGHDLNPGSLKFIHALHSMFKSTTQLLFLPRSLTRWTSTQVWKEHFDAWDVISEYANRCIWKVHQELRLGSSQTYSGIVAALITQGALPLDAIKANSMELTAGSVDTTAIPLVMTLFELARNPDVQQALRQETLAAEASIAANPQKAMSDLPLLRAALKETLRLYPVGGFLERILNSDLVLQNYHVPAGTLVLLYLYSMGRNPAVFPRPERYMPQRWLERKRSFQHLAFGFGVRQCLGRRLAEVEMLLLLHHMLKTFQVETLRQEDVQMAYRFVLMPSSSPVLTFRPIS
# Sequence (P15393 whole entry): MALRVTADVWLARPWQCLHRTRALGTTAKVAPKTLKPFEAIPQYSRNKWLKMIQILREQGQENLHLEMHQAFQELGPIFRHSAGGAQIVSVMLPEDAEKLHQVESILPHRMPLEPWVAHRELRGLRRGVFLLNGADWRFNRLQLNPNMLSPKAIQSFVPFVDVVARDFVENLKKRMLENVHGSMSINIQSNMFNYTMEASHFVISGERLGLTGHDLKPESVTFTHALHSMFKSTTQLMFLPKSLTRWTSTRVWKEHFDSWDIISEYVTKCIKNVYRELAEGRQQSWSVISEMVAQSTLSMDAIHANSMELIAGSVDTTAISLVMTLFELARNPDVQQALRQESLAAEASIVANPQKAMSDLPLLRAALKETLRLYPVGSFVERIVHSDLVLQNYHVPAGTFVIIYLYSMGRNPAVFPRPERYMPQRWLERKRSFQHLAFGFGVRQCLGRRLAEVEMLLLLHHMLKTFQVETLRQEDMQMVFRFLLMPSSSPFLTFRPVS
# assay-comment: Inhibition of Sprague-Dawley rat adrenal mitochondrial CYP11B assessed as decrease in conversion of 11-deoxycortisol to cortisol at 100 nM incubated for 60 mins by ELISA relative to control
# Assay type: protein assay
# experimental-conditions: adrenal mitochondria, probe 11-deoxycortisol
Below, each entry is listed with its recorded inhibition at 1 h, 0.1 µM.

Challenge: Find the measured inhibition at 1 h, 0.1 µM of C[C@]12CC(O)C[C@@H]1CC[C@@H]1[C@@H]2CC[C@]2(C)C(n3ccnc3)=CC[C@@H]12 (some centres not stated) with CYP11B (Rattus norvegicus, UniProt P15393+P30099) as test system.
Response given: ≥ 50%

Challenge: Fill: inhibition at 1 h, 0.1 µM (CYP11B (Rattus norvegicus, UniProt P15393+P30099)) for this molecule CN1C(=O)CC[C@@]2(C)C1=CC[C@@H]1[C@@H]2CC[C@]2(C)C(c3cncc(F)c3)=CC[C@@H]12
Response given: ≥ 50%

Challenge: Report its inhibition at 1 h, 0.1 µM with CYP11B (Rattus norvegicus, UniProt P15393+P30099) as the test system: Cc1ccncc1C1=CCC2[C@@H]3CN(C)C4=CC(=O)CC[C@]4(C)[C@H]3CC[C@]12C (single isomer, unassigned)
Response given: ≥ 50%

Challenge: For CYP11B (Rattus norvegicus, UniProt P15393+P30099), give the measured inhibition at 1 h, 0.1 µM of the entry COc1cncc(C2CC[C@H]3[C@@H]4CCC5=CC(=O)NCC[C@]5(C)[C@H]4CC[C@]23C)c1 (some centres not stated)
Response given: < 32%

Challenge: Specify inhibition at 1 h, 0.1 µM for Cc1cncc(C2=CC[C@H]3[C@@H]4CC=C5N(C)C(=O)CCC[C@]5(C)[C@H]4CC[C@]23C)c1 , system CYP11B (Rattus norvegicus, UniProt P15393+P30099).
Response given: ≥ 50%

Challenge: Provide measured inhibition at 1 h, 0.1 µM on CYP11B (Rattus norvegicus, UniProt P15393+P30099) for C[C@]12CC[C@H](O)CC1=CC[C@@H]1[C@@H]2CC[C@]2(C)C(n3cncc3C#N)=CC[C@@H]12 please.
Response given: ≥ 50%

Challenge: // fetch inhibition at 1 h, 0.1 µM; item: C[C@]12CC[C@H](O)CC1=CC[C@@H]1[C@@H]2CC[C@]2(C)C(c3cccnc3)=CC[C@@H]12 ; system: CYP11B (Rattus norvegicus, UniProt P15393+P30099)
Response given: < 32%
